tested on: Escherichia coli TOP10; assay: shrunken log2 fold change of peptide-encoding DNA abundance (4.5 h post-induction vs induction); higher = less antimicrobial activity (less host growth inhibition); settings: time post-induction: 4.5 h; library: site-saturation at positions 5, 18, 19, 20;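 further: peptides expressed intracellularly from a pBAD plasmid library in pooled LB shake-flask culture, induced with 0.3% L-arabinose, DNA abundance read by NGS, three biological replicates, DESeq2 with apeglm shrinkage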
Measured shrunken log2 fold change by item
assay endpoint: shrunken log2 fold change

INSERT INTO results (biopolymer_sequence, value_observed) VALUES
  ('RRIRNRPPRLPRPRPRPFYYPRP', -0.877),
  ('RRIRYRPPRLPRPRPRPRRDPRP', -0.17),
  ('RRIRARPPRLPRPRPRPDTRPRP', 0.0596),
  ('RRIRNRPPRLPRPRPRPGNKPRP', -0.408),
  ('RRIRVRPPRLPRPRPRPTFMPRP', -0.0669),
  ('RRIRWRPPRLPRPRPRPRGAPRP', 0.586),
  ('RRIRWRPPRLPRPRPRPFDQPRP', -0.102),
  ('RRIRKRPPRLPRPRPRPRLFPRP', 0.104),
  ('RRIRSRPPRLPRPRPRPIFLPRP', -0.335),
  ('RRIRRRPPRLPRPRPRPPATPRP', 0.958),
  ('RRIRDRPPRLPRPRPRPQCAPRP', 0.0622),
  ('RRIRIRPPRLPRPRPRPARHPRP', 0.0869),
  ('RRIRARPPRLPRPRPRPIKLPRP', -0.16),
  ('RRIRSRPPRLPRPRPRPRQDPRP', 0.127),
  ('RRIRRRPPRLPRPRPRPLSKPRP', 1.95),
  ('RRIRWRPPRLPRPRPRPQQVPRP', -0.00531),
  ('RRIRNRPPRLPRPRPRPHKGPRP', -0.014),
  ('RRIRSRPPRLPRPRPRPWKAPRP', -0.00809),
  ('RRIRCRPPRLPRPRPRPTARPRP', 0.105),
  ('RRIRSRPPRLPRPRPRPMERPRP', -0.0898),
  ('RRIRERPPRLPRPRPRPKFDPRP', 0.154),
  ('RRIRSRPPRLPRPRPRPTTFPRP', -0.272),
  ('RRIRQRPPRLPRPRPRPYMTPRP', -0.122),
  ('RRIRPRPPRLPRPRPRPMRCPRP', 0.221),
  ('RRIRPRPPRLPRPRPRPFFWPRP', 0.559),
  ('RRIRQRPPRLPRPRPRPSSAPRP', 2.99),
  ('RRIRERPPRLPRPRPRPSERPRP', -0.239),
  ('RRIRVRPPRLPRPRPRPCLRPRP', -0.146),
  ('RRIRGRPPRLPRPRPRPHNPPRP', -0.0429),
  ('RRIRDRPPRLPRPRPRPVGTPRP', -0.0472),
  ('RRIRLRPPRLPRPRPRPQVFPRP', 0.502),
  ('RRIRSRPPRLPRPRPRPEYTPRP', -0.0105),
  ('RRIRMRPPRLPRPRPRPDYHPRP', -0.457),
  ('RRIRVRPPRLPRPRPRPCYCPRP', -0.32),
  ('RRIRRRPPRLPRPRPRPCQVPRP', 0.0476),
  ('RRIRVRPPRLPRPRPRPWTFPRP', -0.0163),
  ('RRIRRRPPRLPRPRPRPWDYPRP', 0.0184),
  ('RRIRLRPPRLPRPRPRPEWGPRP', 0.504),
  ('RRIRDRPPRLPRPRPRPDFSPRP', 0.0345),
  ('RRIRRRPPRLPRPRPRPNVYPRP', 0.0361),
  ('RRIRARPPRLPRPRPRPWWVPRP', 0.066),
  ('RRIRKRPPRLPRPRPRPINSPRP', -0.395),
  ('RRIRCRPPRLPRPRPRPVNCPRP', -0.0215),
  ('RRIRRRPPRLPRPRPRPYPYPRP', -0.0951),
  ('RRIRTRPPRLPRPRPRPHVEPRP', 0.0236),
  ('RRIRHRPPRLPRPRPRPTYQPRP', 0.0668),
  ('RRIRYRPPRLPRPRPRPKRDPRP', -0.0103),
  ('RRIRLRPPRLPRPRPRPLTMPRP', -0.427),
  ('RRIRYRPPRLPRPRPRPQAEPRP', -0.0183),
  ('RRIRMRPPRLPRPRPRPQPAPRP', 1.55);
